test system: phosphorylation of AKT (pAKT) in T47D cells expressing mutant PI3Ka (H1047R); assay: In vitro cell pAKT (Ser473) HTRF, T47D cells; format: cell-based; conditions: cellular pAKT, T47D cells, mutant PI3Ka (H1047R), 6 hours; read-out: Avg T-47D IC50
pIC50: −log10 of the molar value.
PROPERTY_NAME: pIC50

**Query** Determine from records and report pIC50 for C[C@@H](Nc1ccccc1C(=O)O)c1cc(F)cc2c(=O)n(C)c(-c3ccc(OC4CC(F)(F)C4)nc3)cc12 [Example 546]
**Result** 6.30 to 9.00

###

system: T47D cells expressing mutant PI3Ka (H1047R); experiment: In vitro cell proliferation, T47D cells (CellTiter-Glo); assay type: cell-based; details: inhibition of proliferation, 72 hours, read-out: Avg T-47D EC50
pEC50: −log10 of the molar value.
PROPERTY_NAME: pEC50

Consider the worked cases shown below.
{"COMPOUND": "Cc1cc(C(C)Nc2ccccc2C(=O)O)c2cc(N3CCC4(CCOCC4)CC3)n(C)c(=O)c2c1 (single isomer, unassigned) [Example 167]", "TARGET_OF_ASSAY": "T47D cells expressing mutant PI3Ka (H1047R)", "EXPERIMENTAL_RESULT": "6.30 to 9.00"}
{"COMPOUND": "CC(Nc1cccc(F)c1C(=O)O)c1cc(F)cc2c(=O)n(C)c(-c3ccc(OC4CC(F)C4)nc3)cc12 (stereo not drawn)", "TARGET_OF_ASSAY": "T47D cells expressing mutant PI3Ka (H1047R)", "EXPERIMENTAL_RESULT": "6.30 to 9.00"}

**Query** Recall and state the measured pEC50 for COCCC(=O)N1CCN(c2cc3c(C(C)Nc4ccccc4C(=O)O)cc(C)cc3c(=O)n2C)CC1 (single isomer, unassigned) [Example 113] .
**Result** 6.30 to 9.00

**Query** Specify reported pEC50 for the compound shown: Cc1cc(C(C)Nc2ccccc2C(=O)O)c2cc(N3C[C@H]4CCCC[C@@H]4C3)n(C)c(=O)c2c1 (single isomer, unassigned)
**Result** 6.30 to 9.00

**Query** Note pEC50 for the compound shown: C[C@@H](Nc1ccccc1C(=O)O)c1cc(F)cc2c(=O)n(C)c(C3C[C@@H]3CF)cc12 (single isomer, unassigned)
**Result** 6.30 to 9.00

**Query** Given Cc1cc(C(C)Nc2ccccc2C(=O)O)c2cc(N3Cc4cccc(C(F)(F)F)c4C3)n(C)c(=O)c2c1 (single isomer, unassigned) [Example 92] , respond with its pEC50.
**Result** 5.70 to 6.30

###

tested on: T47D cells expressing mutant PI3Ka (H1047R); test: In vitro cell proliferation, T47D cells (CellTiter-Glo); type: cell-based; conditions: inhibition of proliferation, 72 hours, read-out: Avg T-47D EC50
PROPERTY_NAME: EC50

{"COMPOUND": "C[C@@H](Nc1ccccc1C(=O)O)c1cc(F)cc2c(=O)n(C)c(C3C[C@@H]3C3CC3)cc12 (single isomer, unassigned)", "EXPERIMENTAL_RESULT": "1 to 500 nM"}
{"COMPOUND": "CC(=O)N1CCC2(CC1)CCN(c1cc3c(C(C)Nc4ccccc4C(=O)O)cc(C)cc3c(=O)n1C)CC2 (single isomer, unassigned) [Example 136]", "EXPERIMENTAL_RESULT": "1 to 500 nM"}
{"COMPOUND": "Cc1cc(C(C)Nc2ccccc2C(=O)O)c2cc(N3CCC4(CCN(CC(F)(F)F)CC4)CC3)n(C)c(=O)c2c1 (single isomer, unassigned) [Example 110]", "EXPERIMENTAL_RESULT": "2000 to 15000 nM"}

**Query** Quickly give me recorded EC50 for `Cc1cc([C@@H](C)Nc2ccccc2C(=O)O)c2cc(N3CCN(c4cnc(C)c(F)c4)CC3)n(C)c(=O)c2c1`
**Result** 1 to 500 nM

**Query** Supply reported EC50 belonging to this compound: CC(Nc1cccc(F)c1C(=O)O)c1cc(F)cc2c(=O)n(C)c(-c3ccc(OCC(F)F)nc3)cc12 (stereo not drawn)
**Result** 1 to 500 nM

**Query** Give a short answer stating reported EC50 for `Cc1cc([C@@H](C)Nc2cnc(Cl)nc2C(=O)O)c2cc(N3CCN(CC(F)(F)F)CC3)n(C)c(=O)c2c1` .
**Result** 2000 to 15000 nM

###

system: SKBR3 cells express WT PI3Ka; test: In vitro cell proliferation, SKBR3 cells (CellTiter-Glo); assay type: cell-based; settings: Homo sapiens, SK-BR-3, 72 h, inhibition of proliferation
pEC50: −log10 of the molar value.
Listing of entries alongside the reported pEC50.

These recorded examples may help you get a feel for the data.
{"MOLECULE": "Cc1cc(C(C)Nc2ccccc2C(=O)O)c2cc(N3CCn4c(C)nnc4C3)n(C)c(=O)c2c1 (stereo not shown)", "pEC50": "< 4.82"}
{"MOLECULE": "Cc1cc([C@@H](C)Nc2ccccc2C(=O)O)c2cc(-c3cnc(CF)cn3)n(C)c(=O)c2c1", "pEC50": "< 4.82"}
{"MOLECULE": "Cc1cc([C@@H](C)Nc2ccccc2C(=O)O)c2cc(C3C[C@H]3C)n(C)c(=O)c2c1 (stereo partly shown)", "pEC50": "< 4.82"}
{"MOLECULE": "Cc1cc([C@@H](C)Nc2ncccc2C(=O)O)c2cc(N3CCN(CC(F)(F)F)CC3)n(C)c(=O)c2c1", "pEC50": "< 4.82"}
{"MOLECULE": "Cc1cc([C@@H](C)Nc2ccccc2C(=O)O)c2cc(N3CC[C@]4(CCCN(CC(F)(F)F)C4)C3)n(C)c(=O)c2c1", "pEC50": "4.82 to 5.70"}

**Query** Note pEC50 for the molecule shown: `Cc1cc([C@@H](C)Nc2ccccc2C(=O)O)c2cc(N3CCN(CC4OCCO4)CC3)n(C)c(=O)c2c1`
**Result** < 4.82

**Query** Consider the molecule `Cc1cc([C@@H](C)Nc2ccccc2C(=O)O)c2cc(N3CCN(c4cncnc4)CC3)n(C)c(=O)c2c1` and give its recorded pEC50.
**Result** 4.82 to 5.70

###

Listed below: pEC50 values for each entry.
system: SKBR3 cells express WT PI3Ka; assay: In vitro cell proliferation, SKBR3 cells (CellTiter-Glo); type: cell-based; conditions: Homo sapiens, SK-BR-3, 72 h, inhibition of proliferation
pEC50: −log10 of the molar value.

Below, 4 compounds whose answers are already recorded.
{"COMPOUND": "Cc1cc([C@@H](C)Nc2cccc(F)c2C(=O)O)c2cc(-c3cnc(C(C)C)nc3)n(C)c(=O)c2c1", "EXPERIMENTAL_RESULT": "< 4.82"}
{"COMPOUND": "Cc1cc([C@@H](C)Nc2ccccc2C(=O)O)c2cc(N3CCN(c4ccccc4C#N)CC3)n(C)c(=O)c2c1", "EXPERIMENTAL_RESULT": "< 4.82"}
{"COMPOUND": "Cc1ncncc1N1CCN(c2cc3c([C@@H](C)Nc4ccccc4C(=O)O)cc(F)cc3c(=O)n2C)CC1", "EXPERIMENTAL_RESULT": "4.82 to 5.70"}
{"COMPOUND": "C[C@@H](Nc1ccccc1C(=O)O)c1cc(F)cc2c(=O)n(C)c(-c3cnc(OC4CC4)s3)cc12", "EXPERIMENTAL_RESULT": "< 4.82"}

**Query** State measured pEC50 of the compound C[C@@H](Nc1cccc(F)c1C(=O)O)c1cc(F)cc2c(=O)n(C)c(C3CC3(F)F)cc12 (single isomer, unassigned) with SKBR3 cells express WT PI3Ka.
**Result** < 4.82

**Query** State pEC50 on SKBR3 cells express WT PI3Ka. Entry: `Cc1cc([C@@H](C)Nc2ccccc2C(=O)O)c2cc(N3CCN(C=O)CC3)n(C)c(=O)c2c1`
**Result** < 4.82

###

system: SKBR3 cells express WT PI3Ka; experiment: In vitro cell proliferation, SKBR3 cells (CellTiter-Glo); assay type: cell-based; conditions: Homo sapiens, SK-BR-3, 72 h, inhibition of proliferation
pEC50: −log10 of the molar value.
PROPERTY_NAME: pEC50

Previously resolved entries follow.
{"COMPOUND": "CCOc1ncc(-c2cc3c([C@@H](C)Nc4ccccc4C(=O)O)cc(C)cc3c(=O)n2C)cc1F", "pEC50": "< 4.82"}
{"COMPOUND": "Cc1cc(C(C)Nc2ccccc2C(=O)O)c2cc(C#Cc3cccc(Cl)c3)n(C)c(=O)c2c1 (single isomer, unassigned)", "pEC50": "< 4.82"}
{"COMPOUND": "COC(C)(C)c1ncc(-c2cc3c([C@@H](C)Nc4cccc(F)c4C(=O)O)cc(C)cc3c(=O)n2C)cc1F", "pEC50": "< 4.82"}
{"COMPOUND": "Cc1cc([C@@H](C)Nc2ccccc2C(=O)O)c2cc(C3CC3(F)F)n(C)c(=O)c2c1 (single isomer, unassigned)", "pEC50": "< 4.82"}
{"COMPOUND": "Cc1cc([C@@H](C)Nc2ccccc2C(=O)O)c2cc(-c3cnn(C4CC4)c3)n(C)c(=O)c2c1", "pEC50": "< 4.82"}

**Query** System SKBR3 cells express WT PI3Ka. Read-out pEC50. Item `Cc1cc([C@@H](C)Nc2ccccc2C(=O)O)c2cc(-c3ccc4c(c3)OC(F)(F)O4)n(C)c(=O)c2c1` . Report value.
**Result** < 4.82

**Query** Under SKBR3 cells express WT PI3Ka, report pEC50 for `Cc1cc([C@@H](C)Nc2ccccc2C(=O)O)c2cc(-c3cccc(C(F)F)n3)n(C)c(=O)c2c1`
**Result** 4.82 to 5.70

**Query** Retrieve pEC50 on SKBR3 cells express WT PI3Ka; query `Cc1cc([C@@H](C)Nc2ccccc2C(=O)O)c2cc(N3CCN(c4ccnc(C)n4)CC3)n(C)c(=O)c2c1`
**Result** 4.82 to 5.70

**Query** Write pEC50 of C[C@@H](Nc1cccc(F)c1C(=O)O)c1cc(F)cc2c(=O)n(C)c(C3C[C@@H]3C3CC3)cc12 (single isomer, unassigned) ; system used: SKBR3 cells express WT PI3Ka
**Result** < 4.82

**Query** Lab note: SKBR3 cells express WT PI3Ka assay, enter pEC50 for `Cc1cc([C@@H](C)Nc2ccccc2C(=O)O)c2cc(-c3cnc(C(C)C)nc3)n(C)c(=O)c2c1` here
**Result** < 4.82

**Query** Name the recorded pEC50 of `Cc1cc([C@@H](C)Nc2ccccc2C(=O)O)c2cc(-c3cnc(OC4CC4)c(F)c3)n(C)c(=O)c2c1` , assay system SKBR3 cells express WT PI3Ka.
**Result** < 4.82
